target: CBP bromodomain (Homo sapiens); test: CBP AlphaScreen assay with biotinylated small molecule probe compound C; format: binding; settings: compared to compound 16
Sequence (Q92793 1085-1192 limits assumed): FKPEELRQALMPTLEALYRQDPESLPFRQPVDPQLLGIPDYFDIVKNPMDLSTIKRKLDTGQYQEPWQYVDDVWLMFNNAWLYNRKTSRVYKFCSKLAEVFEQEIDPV
quantity kind: decrease in CBP inhibitory potency

Use the examples below as a reference point.
{"molecule": "Cc1noc(C)c1-c1ccn2c(NC(C)(C)C)c(CCc3ccccc3)nc2c1", "study target": "CBP bromodomain (Homo sapiens)", "decrease in CBP inhibitory potency": "> 5 fold"}
{"molecule": "COc1ccc(CCc2nc3cc(-c4c(C)noc4C)ccn3c2NC23CC4CC(CC(C4)C2)C3)cc1", "study target": "CBP bromodomain (Homo sapiens)", "decrease in CBP inhibitory potency": "> 5 fold"}
{"molecule": "COc1ccc(CCc2nc3cc(-c4c(C)noc4C)ccn3c2NCc2ccc(Cl)cc2)cc1", "study target": "CBP bromodomain (Homo sapiens)", "decrease in CBP inhibitory potency": "10 fold"}

Next up:
Ask: Form field: reported decrease in CBP inhibitory potency of CCCOc1ccc(CCc2nc3cc(-c4c(C)noc4C)ccn3c2NC2CCCCC2)cc1
Result: ~ 4 fold

---

Entries and their decrease in CBP inhibitory potency values follow.
biological target: CBP bromodomain (Homo sapiens); test: CBP AlphaScreen assay with biotinylated small molecule probe compound C; format: binding; details: compared to compound 16

{"molecule": "COc1ccc(CCc2nc3cc(-c4c(C)noc4C)ccn3c2NCCN2CCOCC2)cc1", "decrease in CBP inhibitory potency": "~2 fold"}
{"molecule": "COc1ccc(CCc2nc3cc(-c4c(C)noc4C)ccn3c2NCc2ccccc2)cc1", "decrease in CBP inhibitory potency": "10 fold"}
{"molecule": "COc1ccc(CCc2nc3cc(-c4c(C)noc4C)ccn3c2NC(C)(C)C)cc1", "decrease in CBP inhibitory potency": "> 5 fold"}

Ask: Form field: reported decrease in CBP inhibitory potency of COc1ccc(CCc2nc3cc(-c4c(C)noc4C)ccn3c2NC(C)C)cc1
Result: ~3 fold

meta.source: paper PMC8856734
